Reported MIC values for a set of compounds
- Test system: Escherichia coli 851E
- procedure_details: MIC against standard strains (agar dilution)
- Assay type: cell-based
- experimental_context: Escherichia coli, 851E, 20 h
- Procedure: Test example 1: Measurement of Minimum Inhibitory Concentration (MIC) Specifically, test compounds were diluted by 2-fold dilution method and dispersed in Mueller-Hinton agar medium and then, 2µℓ of test strains were inoculated at a concentration of 10^7 cfu(colony forming unit)/mℓ on the medium and incubated for 20 hours at 37°C.

Recorded MIC, per entry:
compound	assayed_system	MIC
C#CCO/N=C(\C(=O)NC1C(=O)N2C(C(=O)O)=C(Sc3cc(N)nc(N)n3)CSC12)c1csc(N)n1 (centres unmarked)	Escherichia coli 851E	0.25 µg/mL
CCO/N=C(\C(=O)NC1C(=O)N2C(C(=O)O)=C(Sc3cc(N)nc(N)n3)CSC12)c1csc(N)n1 (centres unmarked)	Escherichia coli 851E	0.25 µg/mL
CCO/N=C(\C(=O)NC1C(=O)N2C(C(=O)O)=C(Sc3cc(N)nc(N)n3)CSC12)c1nsc(N)n1 (centres unmarked)	Escherichia coli 851E	0.25 µg/mL
CO/N=C(\C(=O)NC1C(=O)N2C(C(=O)O)=C(Sc3cc(N)nc(N)n3)CSC12)c1csc(N)n1 (centres unmarked)	Escherichia coli 851E	0.063 µg/mL

# context switch: different compound, same MIC
Prompt: Observed MIC on Escherichia coli 851E for Nc1cc(SC2=C(C(=O)O)N3C(=O)C(NC(=O)/C(=N\O)c4csc(N)n4)C3SC2)nc(N)n1 (centres unmarked) , please.
Completion: 0.063 µg/mL

###

- procedure_details: Pharmacokinetic experiment (blood concentration by HPLC)
- Assay type: in vivo, mice
- experimental_context: male, mouse, blood, po, 20 mg/kg, Oral administration, time 10 min, read-out: blood concentration, mouse-2
outcome_measure: concentration at 10 min (ng/mL)
Report the figure in ng/mL without appending any unit label.

Prompt: Can you share its concentration at 10 min? I mean this compound: CO/N=C(\C(=O)NC1C(=O)N2C(C(=O)O)=C(Sc3cc(N)nc(N)n3)CSC12)c1csc(N)n1 (stereo not shown)
Completion: 270

###

- procedure_details: Pharmacokinetic experiment (blood concentration by HPLC)
- Assay type: in vivo, mice
- experimental_context: male, mouse, blood, po, 20 mg/kg, Oral administration, time 90 min, read-out: blood concentration, mouse-1
- Description: Test example 2: Pharmacokinetic experiment Male mice, each of which has a body weight of […] were used in the present pharmacokinetic experiment. Test compounds were formulated into 1% of solution and then, the solution was administered by oral route and by injection with a dose of 20mg/kg, respectively. […] Concentrations of test compounds in blood were measured by HPLC quantitative analysis and based on the results, pharmacokinetic parameters were calculated.
outcome_measure: concentration at 90 min (ng/mL)
Answer in ng/mL, number only, no unit symbol.

Prompt: For the compound shown here, CO/N=C(\C(=O)NC1C(=O)N2C(C(=O)O)=C(Sc3cc(N)nc(N)n3)CSC12)c1csc(N)n1 (stereo not shown) , give the reported concentration at 90 min.
Completion: 70

###

- procedure_details: Pharmacokinetic experiment (blood concentration by HPLC)
- Type: in vivo, mice
- experimental_context: male, mouse, blood, other: injection, 20 mg/kg, Injection, time 40 min, read-out: blood concentration, mouse-1
- Procedure: Test example 2: Pharmacokinetic experiment Male mice, each of which has a body weight of […] were used in the present pharmacokinetic experiment. Test compounds were formulated into 1% of solution and then, the solution was administered by oral route and by injection with a dose of 20mg/kg, respectively. […] Concentrations of test compounds in blood were measured by HPLC quantitative analysis and based on the results, pharmacokinetic parameters were calculated.
outcome_measure: concentration at 40 min (µg/mL)
Supply the numeric figure in µg/mL, leaving out any unit text.

Prompt: Quick one: concentration at 40 min of CO/N=C(\C(=O)NC1C(=O)N2C(C(=O)O)=C(Sc3cc(N)nc(N)n3)CSC12)c1csc(N)n1 (stereo not shown) ?
Completion: 12.2

// provenance: patent EP1077981B1
